molecular target: endogenous importin-α1 (human, UniProt P52292 2-529); experiment: co-IP of GFP-tagged KPNB1 truncations, western blot
quantity-name: binding result

GFP-KPNB1 H1-2 (receptor, not shown: GFP/EGFP tag (pEGFP-C1, Clontech)) GGGSGGGSGGGSMELITILEKTVSPDRLELEAAQKFLERAAVENLPTFLVELSRVLANPGNSQVARVAAGLQIKNSLTSKDPD | no binding
GFP-KPNB1 H1-3 (receptor, not shown: GFP/EGFP tag (pEGFP-C1, Clontech)) GGGSGGGSGGGSMELITILEKTVSPDRLELEAAQKFLERAAVENLPTFLVELSRVLANPGNSQVARVAAGLQIKNSLTSKDPDIKAQYQQRWLAIDANARREVKNYVLQTLGTETYRPSSASQCVAGIACAEIPVNQWP | no binding

Value source: patent US20240226230A1
